# Tested on: Staphylococcus aureus
# test: Antibacterial activity against penicillin G sensitive Staphylococcus aureus X1.1.
# Format: functional
readout-name: MIC (µg/mL)
One number for each entry, in µg/mL.

*Q* Which MIC value is on record for COc1ccc2cc([C@@H](N)C(=O)NC3C(=O)N4C(C(=O)O)=C(C)CSC34)ccc2c1 (some centres undefined) ?
*A* 0.25

*Q* Which MIC value is on record for CC1=C(C(=O)O)N2C(=O)C(NC(=O)[C@H](N)c3cccc4ccc(Cl)cc34)C2SC1 (some centres undefined) ?
*A* 1

*Q* Which MIC value is on record for CC1=C(C(=O)O)N2C(=O)C(NC(=O)[C@H](N)c3ccc4cccc(Cl)c4c3)C2SC1 (some centres undefined) ?
*A* 0.5

*Q* Which MIC value is on record for CC1=C(C(=O)O)N2C(=O)C(NC(=O)[C@@H](N)c3cc4cc(Cl)ccc4s3)C2SC1 (some centres undefined) ?
*A* 0.25

*Q* Which MIC value is on record for CC1=C(C(=O)O)N2C(=O)C(NC(=O)[C@H](N)c3ccc4cc(Cl)ccc4c3)C2SC1 (some centres undefined) ?
*A* 0.25

*Q* Which MIC value is on record for CC1=C(C(=O)O)N2C(=O)C(NC(=O)[C@H](N)c3csc4cc(Cl)c(Cl)cc34)C2SC1 (some centres undefined) ?
*A* 1

Below is a list of compounds. For each, state its recorded MIC.
1. CC1=C(C(=O)O)N2C(=O)C(NC(=O)[C@@H](N)c3cc4ccccc4s3)C2SC1 (some centres undefined)
2. CC1=C(C(=O)O)N2C(=O)C(NC(=O)[C@H](N)c3ccc4ccccc4c3)C2SC1 (some centres undefined)
3. CC1=C(C(=O)O)N2C(=O)C(NC(=O)[C@@H](N)c3cc4c(Cl)cccc4s3)C2SC1 (some centres undefined)
4. CC1=C(C(=O)O)N2C(=O)C(NC(=O)[C@H](N)c3csc4c(F)cccc34)C2SC1 (some centres undefined)
5. CC1=C(C(=O)O)N2C(=O)C(NC(=O)[C@H](N)c3csc4cc(Cl)ccc34)C2SC1 (some centres undefined)
6. CC1=C(C(=O)O)N2C(=O)C(NC(=O)[C@H](N)c3csc4ccc(F)cc34)C2SC1 (some centres undefined)
7. CC1=C(C(=O)O)N2C(=O)C(NC(=O)[C@H](N)c3csc4ccc(Cl)cc34)C2SC1 (some centres undefined)
8. CC1=C(C(=O)O)N2C(=O)C(NC(=O)[C@H](N)c3csc4cccc(F)c34)C2SC1 (some centres undefined)

*A*
[0.5, 0.5, 0.5, 0.5, 1, 1, 0.5, 4]

* * *

# Tested on: Haemophilus influenzae
# test: Antibacterial activity against sensitive Haemophilus influenzae C.L.
# Type: functional
readout-name: MIC (µg/mL)
Answers are plain numbers, in µg/mL.

Worked cases, answers included:
*Q* Which MIC value is on record for CC1=C(C(=O)O)N2C(=O)C(NC(=O)[C@H](N)c3csc4ccc(F)cc34)C2SC1 (some centres undefined) ?
*A* 4

*Q* Which MIC value is on record for CC1=C(C(=O)O)N2C(=O)C(NC(=O)[C@H](N)c3ccc4cccc(Cl)c4c3)C2SC1 (some centres undefined) ?
*A* 8

*Q* Which MIC value is on record for CC1=C(C(=O)O)N2C(=O)C(NC(=O)[C@H](N)c3cccc4ccc(Cl)cc34)C2SC1 (some centres undefined) ?
*A* 16

Continuing:
*Q* Which MIC value is on record for CC1=C(C(=O)O)N2C(=O)C(NC(=O)[C@@H](N)c3csc4ccccc34)C2SC1 (some centres undefined) ?
*A* 2
